Assayed target: Nitric oxide synthase 3 (Homo sapiens, UniProt P29474)
Sequence (P29474 whole entry): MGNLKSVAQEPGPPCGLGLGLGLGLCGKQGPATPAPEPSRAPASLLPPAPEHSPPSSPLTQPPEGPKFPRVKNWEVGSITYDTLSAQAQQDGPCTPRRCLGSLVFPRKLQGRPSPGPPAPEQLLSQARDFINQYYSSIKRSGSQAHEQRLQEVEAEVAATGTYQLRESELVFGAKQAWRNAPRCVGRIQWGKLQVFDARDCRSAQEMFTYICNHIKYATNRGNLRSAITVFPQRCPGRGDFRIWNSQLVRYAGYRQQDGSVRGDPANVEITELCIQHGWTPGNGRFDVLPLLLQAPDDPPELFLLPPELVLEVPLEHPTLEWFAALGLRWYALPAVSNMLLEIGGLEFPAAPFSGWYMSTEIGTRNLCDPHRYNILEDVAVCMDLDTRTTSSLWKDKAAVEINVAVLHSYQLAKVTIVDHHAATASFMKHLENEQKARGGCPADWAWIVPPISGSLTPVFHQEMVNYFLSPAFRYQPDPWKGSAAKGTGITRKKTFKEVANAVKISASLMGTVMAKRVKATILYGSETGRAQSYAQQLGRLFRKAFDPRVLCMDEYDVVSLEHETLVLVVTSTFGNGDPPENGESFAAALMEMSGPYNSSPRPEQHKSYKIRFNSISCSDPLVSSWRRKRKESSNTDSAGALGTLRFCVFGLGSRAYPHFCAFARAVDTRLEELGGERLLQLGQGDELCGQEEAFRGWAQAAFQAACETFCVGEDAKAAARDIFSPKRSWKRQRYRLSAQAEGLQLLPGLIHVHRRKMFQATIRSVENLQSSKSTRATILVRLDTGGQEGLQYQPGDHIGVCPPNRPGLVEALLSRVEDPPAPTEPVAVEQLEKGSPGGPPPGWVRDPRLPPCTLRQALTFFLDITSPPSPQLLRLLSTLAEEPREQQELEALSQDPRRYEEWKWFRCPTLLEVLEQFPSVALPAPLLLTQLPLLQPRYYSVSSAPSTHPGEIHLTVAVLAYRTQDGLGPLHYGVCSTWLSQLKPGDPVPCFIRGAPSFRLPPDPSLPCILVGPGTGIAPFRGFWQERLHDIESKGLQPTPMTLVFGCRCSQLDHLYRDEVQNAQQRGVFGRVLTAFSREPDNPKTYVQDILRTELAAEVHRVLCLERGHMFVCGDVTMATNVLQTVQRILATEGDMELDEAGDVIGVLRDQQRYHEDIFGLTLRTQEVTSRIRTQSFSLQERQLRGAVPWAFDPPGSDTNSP
pKi: −log10 of the molar value.
pKi values by entry
Parameter: pKi

INSERT INTO measurements (mol_smiles, measured) VALUES
  ('CN(C)CCc1cc(F)c(F)c(CCc2cc(C(F)(F)F)cc(N)n2)c1.Cl.Cl', 4.17),
  ('Cc1cc(N)nc(/C=C/c2cc(CCN(C)C)cc(F)c2F)c1', 4.84),
  ('CN(C)CCc1cc(F)c(F)c(CCc2cccc(N)n2)c1', 4.21),
  ('Cc1cc(N)nc(C#Cc2cc(CCN(C)C)cc(F)c2F)c1', 4.73),
  ('CCN(CC)CCc1cc(F)c(F)c(CCc2cc(C)cc(N)n2)c1.Cl.Cl', 4.33),
  ('Cc1cc(N)nc(CCc2cc(CCN)cc(F)c2F)c1.Cl.Cl', 4.11);
